A collection of substances and their measured Average fluorescence
- method_summary: Retention of arrayed peptides on a polypropylene sheet after successive washes
- Format: physicochemical
- protocol_conditions: Test array; after third wash (water, 30 minutes)
No end group written: not given here. TAMRA = rhodamine dye label at the N-terminus (mixture of 5- and 6-isomers)

// worked examples, Average fluorescence included
Data request, read-out Average fluorescence, for TAMRA-F-G-F-G-F-G-F-G-F-G-F-S-F-A-F-D-F-G-F ({TAMRA}-FGFGFGFGFGFSFAFDFGF) [Peptide P1-5]
147,812,043

Continue with TAMRA-F-G-F-G-F-S-F-A-F-D-F-G-F ({TAMRA}-FGFGFSFAFDFGF) [Peptide P1-2]
126,193,156

Continue with TAMRA-F-G-F-S-F-A-F-D-F-G-F ({TAMRA}-FGFSFAFDFGF) [Peptide P1-1]
124,941,941

Continue with TAMRA-F-G-F-G-F-G-F-G-F-S-F-A-F-D-F-G-F ({TAMRA}-FGFGFGFGFSFAFDFGF) [Peptide P1-4]
135,681,173

Would you kindly look at the next entry?
Data request, read-out Average fluorescence, for TAMRA-F-G-F-G-F-G-F-S-F-A-F-D-F-G-F ({TAMRA}-FGFGFGFSFAFDFGF) [Peptide P1-3]
125,717,642

----------
- method_summary: Retention of arrayed peptides on a polypropylene sheet after successive washes
- Assay type: physicochemical
- protocol_conditions: Test array; after second wash; slide background subtracted
No end group written: not given here. TAMRA = rhodamine dye label at the N-terminus (mixture of 5- and 6-isomers)
assay_metric: Corrected signal

// worked examples, Corrected signal included
Data request, read-out Corrected signal, for TAMRA-F-G-F-G-F-S-F-A-F-D-F-G-F ({TAMRA}-FGFGFSFAFDFGF) [Peptide P1-2]
3,248,336

Continue with TAMRA-F-G-F-G-F-G-F-G-F-S-F-A-F-D-F-G-F ({TAMRA}-FGFGFGFGFSFAFDFGF) [Peptide P1-4]
26,653,223

Continue with TAMRA-F-G-F-G-F-G-F-G-F-G-F-S-F-A-F-D-F-G-F ({TAMRA}-FGFGFGFGFGFSFAFDFGF) [Peptide P1-5]
35,418,169

Continue with TAMRA-F-G-F-S-F-A-F-D-F-G-F ({TAMRA}-FGFSFAFDFGF) [Peptide P1-1]
−5,230,512

Would you kindly look at the next entry?
Data request, read-out Corrected signal, for TAMRA-F-G-F-G-F-G-F-S-F-A-F-D-F-G-F ({TAMRA}-FGFGFGFSFAFDFGF) [Peptide P1-3]
16,278,152

----------
- method_summary: Retention of arrayed peptides on a polypropylene sheet after successive washes
- Format: physicochemical
- protocol_conditions: Control array (not washed); scan after third wash
- Procedure: Further experiments were undertaken to investigate the retention of peptides P1-1 to P1-5 and P2-1 to P2-2, shown in Table 3, on a polypropylene surface. The polypropylene sheet was wiped with 50% (v/v) aqueous acetonitrile prior to use. 8×replicate 20 nl volumes of 1 μM peptides P1-1 to P1-5 and P2-1 to P2-2 and TAMRA in dimethyl sulphoxide (DMSO) were dispensed at 1 mm spacing to a 3″×1″×1 mm polypropylene sheet using the Piezorray system (PerkinElmer LAS). […]
No end group written: not given here. TAMRA = rhodamine dye label at the N-terminus (mixture of 5- and 6-isomers)
A collection of substances and their measured Average fluorescence

// worked examples, Average fluorescence included
Data request, read-out Average fluorescence, for TAMRA-F-G-F-G-F-S-F-A-F-D-F-G-F ({TAMRA}-FGFGFSFAFDFGF) [Peptide P1-2]
185,727,868

Continue with TAMRA-F-G-F-G-F-G-F-S-F-A-F-D-F-G-F ({TAMRA}-FGFGFGFSFAFDFGF) [Peptide P1-3]
184,219,147

Continue with TAMRA-F-G-F-S-F-A-F-D-F-G-F ({TAMRA}-FGFSFAFDFGF) [Peptide P1-1]
218,342,010

Continue with TAMRA-F-G-F-G-F-G-F-G-F-S-F-A-F-D-F-G-F ({TAMRA}-FGFGFGFGFSFAFDFGF) [Peptide P1-4]
176,102,487

---
Data request, read-out Average fluorescence, for TAMRA-F-G-F-G-F-G-F-G-F-G-F-S-F-A-F-D-F-G-F ({TAMRA}-FGFGFGFGFGFSFAFDFGF) [Peptide P1-5]
183,492,293
